Test system: BDF1 mice, B16 melanoma ip, median survival T/C
method: NCI In Vivo Anticancer Drug Screen. Data for tumor model B16 Melanoma (intraperitoneal) in B6D2F1 (BDF1) mice
condition description: endpoint: median survival time; dose: 100.0 mg/kg/injection; schedule: Q01DX009 (ip); vehicle: Klucel (hydroxypropylcellulose) (HPC); higher = longer survival
Toxic doses and inconclusive results are not listed.
metric: T/C

Guide cases for T/C, answers given:
INSERT INTO assay_data (compound, obs_value) VALUES
  ('OCC1OC(n2cnc3c(=S)nc[nH]c32)CC1O (stereo not drawn)', '92 % of control'),
  ('CC(=O)CC(=O)N1CCCC(C)C1 (stereo not drawn)', '116 % of control'),
  ('ClC1C(Cl)C(Cl)C(Cl)C(Cl)C1Cl (stereo not drawn)', '93 % of control');

T/C for CC(=O)CC(=O)NC1CCCC1 is 96 % of control

response.value for CC(=O)Nc1ccc(/C=N/NC(N)=S)cc1 (field: T/C) = 102 % of control

----------
Here, each record is paired with measured T/C data.
Tested on: BDF1 mice, B16 melanoma ip, median survival T/C
method: NCI In Vivo Anticancer Drug Screen. Data for tumor model B16 Melanoma (intraperitoneal) in B6D2F1 (BDF1) mice
condition description: endpoint: median survival time; dose: 100.0 mg/kg/injection; schedule: Q04DX003 (ip); vehicle: saline; higher = longer survival
Toxic doses and inconclusive results are not listed.

Looking up CC(=N)/C(C(=O)NC1CCCCC1)=C(/C)O , I see its T/C listed as 100 % of control

The compound identified as C[n+]1cccc(O)c1 registered its T/C at 95 % of control

The measured T/C associated with C=CCN1CCCC1=O reads 102 % of control

So, CCOC(=O)C(C#N)N=O (centres undefined) ? Its T/C was 113 % of control

T/C measured on NCCc1c[nH]c2ccccc12 = 120 % of control

The compound identified as O=[N+]([O-])c1cc(Br)cc(Br)c1S(=O)(=O)O registered its T/C at 100 % of control

----------
System: BDF1 mice, B16 melanoma ip, median survival T/C
method: NCI In Vivo Anticancer Drug Screen. Data for tumor model B16 Melanoma (intraperitoneal) in B6D2F1 (BDF1) mice
condition description: endpoint: median survival time; dose: 50.0 mg/kg/injection; schedule: Q01DX009 (ip); vehicle: Klucel (hydroxypropylcellulose) (HPC); higher = longer survival
Toxic doses and inconclusive results are not listed.
metric: T/C

INSERT INTO assay_data (compound, metric, obs_value) VALUES
  ('Clc1ccc(C(Cl)(Cl)Cl)cc1Cl', 'T/C', '103 % of control'),
  ('O=C(O)CNc1ccccc1C(=O)O', 'T/C', '108 % of control'),
  ('NC(N)=Nc1ccc(C(=O)Nc2ccc([N+](=O)[O-])cc2)cc1', 'T/C', '98 % of control'),
  ('OC1CCCC2CCC[N-]C12.OC1CCCC2CCC[N-]C12.[Mn+2] (configuration not stated)', 'T/C', '105 % of control'),
  ('c1ccc(COCCNCCOCc2ccccc2)cc1', 'T/C', '103 % of control');

The compound CC1(C)SC(C(NC(=O)COc2ccccc2)C(=O)O)NC1C(=O)O (configuration not stated) , tested on BDF1 mice, B16 melanoma ip, median survival T/C, showed T/C of 107 % of control

Measured T/C (BDF1 mice, B16 melanoma ip, median survival T/C), entry C1CC[N-]CC1.C1CC[N-]CC1.[Cl][Pt+2]([Cl])([Cl])[Cl] : 111 % of control

----------
Tested on: BDF1 mice, B16 melanoma ip, median survival T/C
method: NCI In Vivo Anticancer Drug Screen. Data for tumor model B16 Melanoma (intraperitoneal) in B6D2F1 (BDF1) mice
condition description: endpoint: median survival time; dose: 200.0 mg/kg/injection; schedule: Q01DX009 (ip); vehicle: Klucel (hydroxypropylcellulose) (HPC); higher = longer survival
Toxic doses and inconclusive results are not listed.
Each item that follows carries a reported T/C.

Worked examples, 3 molecules total:
INSERT INTO assay_data (molecule, subject_of_test, metric, obs_value) VALUES
  ('CC1(C)CC(O)(Cc2ccccc2)C(=O)c2ccccc21 (stereo not given)', 'BDF1 mice, B16 melanoma ip, median survival T/C', 'T/C', '99 % of control'),
  ('COc1cc(C(=O)c2cc3c(cc2C)OCO3)cc(OC)c1OC', 'BDF1 mice, B16 melanoma ip, median survival T/C', 'T/C', '104 % of control'),
  ('CCCCCCCCCCCCCCCC(C)(C)O', 'BDF1 mice, B16 melanoma ip, median survival T/C', 'T/C', '100 % of control');

Measured T/C, Oc1cc(Br)ccc1C=Nc1ccc(N2CCCCC2)cc1 : 93 % of control

In plain terms, O=S(=O)(Nc1ccc(F)cc1)c1ccccc1 has a documented T/C of 99 % of control

For reference, reported T/C for COc1cc(C=Nc2cccc(C(F)(F)F)c2)ccc1O stands at 94 % of control

For record CC(CC#N)OC(=O)c1cccc([N+](=O)[O-])c1 (stereo not given) the listed T/C is 99 % of control

# molecule Nc1ccccc1SC1CC(=O)N(c2cccc3ccccc23)C1=O (stereo not given) ; its T/C = 92 % of control

----------
Test system: BDF1 mice, B16 melanoma ip, median survival T/C
method: NCI In Vivo Anticancer Drug Screen. Data for tumor model B16 Melanoma (intraperitoneal) in B6D2F1 (BDF1) mice
condition description: endpoint: median survival time; dose: 12.5 mg/kg/injection; schedule: Q01DX009 (ip); vehicle: Klucel (hydroxypropylcellulose) (HPC)
Protocol: The antitumor activity of compounds was measured in mice bearing transplantable tumors. Survival or tumor size were measured and the results are expressed as the measurement made in the treated group (T) divided by the measurement made in the vehicle treated control group (C). The tumor model used in this assay is B16 Melanoma (intraperitoneal) in B6D2F1 (BDF1) mice
Inconclusive results and toxic doses are left out. How the source made its calls: active means survival T/C of 150% or more; inactive means T/C below 125% in these data.
Log the outcome using a class from active, inactive

INSERT INTO measurements (molecule, subject_of_test, qualitative_label) VALUES
  ('CCCCC(C)(C(=O)OCC)C(=O)OCC', 'BDF1 mice, B16 melanoma ip, median survival T/C', 'inactive'),
  ('Cc1cccc(Nc2c(N)nc(N)nc2N)c1', 'BDF1 mice, B16 melanoma ip, median survival T/C', 'inactive'),
  ('C[As](C)[Se]C1OC(CO)C(O)C(O)C1O (configuration not stated)', 'BDF1 mice, B16 melanoma ip, median survival T/C', 'inactive'),
  ('CC12C=CC(CC1)C2OC(=O)c1ccccc1C(=O)O (configuration not stated)', 'BDF1 mice, B16 melanoma ip, median survival T/C', 'inactive'),
  ('CC(Cc1ccccc1)NC(C#N)c1ccccc1 (configuration not stated)', 'BDF1 mice, B16 melanoma ip, median survival T/C', 'inactive'),
  ('N#Cc1nc2ccccc2nc1C#N', 'BDF1 mice, B16 melanoma ip, median survival T/C', 'inactive'),
  ('O=C(NCCCN1CCOCC1)C(Oc1ccccc1)Oc1ccccc1', 'BDF1 mice, B16 melanoma ip, median survival T/C', 'inactive'),
  ('O=C(CBr)c1ccc(F)cc1', 'BDF1 mice, B16 melanoma ip, median survival T/C', 'inactive'),
  ('N#CC(C#N)=C/C=C/c1cccc([N+](=O)[O-])c1', 'BDF1 mice, B16 melanoma ip, median survival T/C', 'inactive'),
  ('ClC(Cl)=[C](Cl)[Hg][C](Cl)=C(Cl)Cl', 'BDF1 mice, B16 melanoma ip, median survival T/C', 'inactive');

[in] What call does the record list for CC(=O)OCC1OC(n2cc(CBr)nn2)C(OC(C)=O)C(OC(C)=O)C1OC(C)=O (configuration not stated) ?
[out] inactive

[in] How was COc1cc(C=Nc2cccc(Br)c2)ccc1N(CCCl)CCCl classified in this test?
[out] active

[in] # outcome recorded in this test, key = CCO/C=C1\SC(=S)N(c2cccc(C)c2)C1=O
[out] inactive

[in] # fetch the recorded call for Clc1sc2ccccc2c1Cl here
[out] inactive

[in] Check the results log: what was the call for O=C(O)c1ccccc1C(=O)OC1CC2C=CC1C21CC1 (configuration not stated) ?
[out] inactive

[in] Entry CC(C)Oc1ccc2c(c1)N(CCC1CCCCN1)c1ccccc1S2 (configuration not stated) : call = ?
[out] inactive

[in] Assay outcome for O=C1C2(Cl)C3(Cl)C4(Cl)C(Cl)(Cl)C5(Cl)[C@]3(Cl)C1(Cl)[C@]5(Cl)C24Cl (some centres not stated) : what was it?
[out] inactive

----------
Known T/C of a selection of compounds
System: BDF1 mice, B16 melanoma ip, median survival T/C
method: NCI In Vivo Anticancer Drug Screen. Data for tumor model B16 Melanoma (intraperitoneal) in B6D2F1 (BDF1) mice
condition description: endpoint: median survival time; dose: 3.12 mg/kg/injection; schedule: Q01DX009 (ip); vehicle: Klucel (hydroxypropylcellulose) (HPC); higher = longer survival
Protocol: The antitumor activity of compounds was measured in mice bearing transplantable tumors. Survival or tumor size were measured and the results are expressed as the measurement made in the treated group (T) divided by the measurement made in the vehicle treated control group (C). The tumor model used in this assay is B16 Melanoma (intraperitoneal) in B6D2F1 (BDF1) mice
Toxic doses and inconclusive results are not listed.

Reference set, count: 4
INSERT INTO results (compound, subject_of_test, metric, obs_value) VALUES
  ('O=C(Nc1ccc(Cl)c(Cl)c1)Nc1c(Oc2ccc(Cl)c(Cl)c2)ccc(Cl)c1S(=O)(=O)O', 'BDF1 mice, B16 melanoma ip, median survival T/C', 'T/C', '119 % of control'),
  ('C[CH2][Pb]([CH2]C)([CH2]C)[N]1C(=O)c2ccccc2C1=O', 'BDF1 mice, B16 melanoma ip, median survival T/C', 'T/C', '109 % of control'),
  ('N#CC(C#N)=C/C=C/c1cccc([N+](=O)[O-])c1', 'BDF1 mice, B16 melanoma ip, median survival T/C', 'T/C', '110 % of control'),
  ('CC(C)Oc1ccc2c(c1)N(CCC1CCCCN1)c1ccccc1S2 (stereo not given)', 'BDF1 mice, B16 melanoma ip, median survival T/C', 'T/C', '98 % of control');

The compound listed as COc1ccc2c(c1OC)C13CCCCC1C(C2)[N+](C)(C)CC3 (stereo not given) has a reported T/C of 86 % of control

Where these numbers come from: PubChem BioAssay AID192
